Just for reference, patent US9458092B2 is where these values come from.

Some compounds, each annotated with its measured % inhibition of Wet-Dog Shake.
# Target system: TRPM8 (Rattus norvegicus, UniProt Q8R455)
# Sequence (Q8R455 whole entry): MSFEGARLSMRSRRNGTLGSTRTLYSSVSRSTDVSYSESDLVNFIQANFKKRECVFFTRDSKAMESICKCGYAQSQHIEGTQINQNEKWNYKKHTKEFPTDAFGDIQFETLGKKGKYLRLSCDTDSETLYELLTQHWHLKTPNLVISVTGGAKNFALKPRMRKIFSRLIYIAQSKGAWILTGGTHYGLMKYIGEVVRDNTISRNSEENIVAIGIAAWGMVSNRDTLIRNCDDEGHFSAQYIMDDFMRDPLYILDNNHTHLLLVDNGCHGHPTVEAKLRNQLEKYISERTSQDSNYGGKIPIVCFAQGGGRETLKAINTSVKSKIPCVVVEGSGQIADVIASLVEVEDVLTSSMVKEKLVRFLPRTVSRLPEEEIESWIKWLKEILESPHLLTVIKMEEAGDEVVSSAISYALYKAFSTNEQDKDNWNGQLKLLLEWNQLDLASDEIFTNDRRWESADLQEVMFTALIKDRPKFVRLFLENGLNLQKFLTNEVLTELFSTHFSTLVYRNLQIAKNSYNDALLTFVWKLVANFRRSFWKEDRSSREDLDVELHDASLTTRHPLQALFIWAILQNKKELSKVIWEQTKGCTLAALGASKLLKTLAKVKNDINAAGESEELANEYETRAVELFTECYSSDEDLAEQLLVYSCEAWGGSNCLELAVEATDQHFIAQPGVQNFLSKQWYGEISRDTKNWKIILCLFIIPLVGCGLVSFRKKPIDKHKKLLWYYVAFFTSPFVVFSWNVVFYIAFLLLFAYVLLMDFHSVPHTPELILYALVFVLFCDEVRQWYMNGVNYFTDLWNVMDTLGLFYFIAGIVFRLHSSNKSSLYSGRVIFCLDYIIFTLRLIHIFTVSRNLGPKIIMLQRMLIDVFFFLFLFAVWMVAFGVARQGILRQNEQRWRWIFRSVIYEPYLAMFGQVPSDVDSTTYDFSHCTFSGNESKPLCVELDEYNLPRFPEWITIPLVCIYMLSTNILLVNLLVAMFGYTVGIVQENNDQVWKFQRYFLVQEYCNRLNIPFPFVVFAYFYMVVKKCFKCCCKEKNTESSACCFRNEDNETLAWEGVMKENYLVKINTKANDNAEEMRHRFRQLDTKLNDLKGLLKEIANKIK
# Procedure text: Confirmation test of inhibitory effects on icilin-induced wet-dog shakes
# Format: in vivo, female SD rats
# Design: test compounds were orally administered to female SD rats; from tissue; host or cells: whole animal (female SD rats), endogenous channel
# Condition summary: dose 3 mg/kg orally, icilin 1 mg/kg i.p. after 1 hour, shakes counted for 5 minutes
Result type: % inhibition of Wet-Dog Shake (%)

>  <Compound>
Cc1ncccc1C(=O)N([C@@H]1CCc2c(F)cc(Cl)cc21)[C@@H](C(N)=O)c1cccc(F)c1 [Example 2-161LP]

>  <Target system>
TRPM8 (Rattus norvegicus, UniProt Q8R455)

>  <Observed>
42

$$$$
>  <Compound>
Cc1cnccc1C(=O)N([C@@H]1CCc2c(F)cc(Cl)cc21)[C@@H](C(N)=O)c1ccccc1 [Example 2-167LP]

>  <Target system>
TRPM8 (Rattus norvegicus, UniProt Q8R455)

>  <Observed>
64

$$$$
>  <Compound>
Cc1ncccc1C(=O)N([C@@H]1CCc2ccc(Cl)cc21)[C@@H](C(N)=O)c1ccccc1 [Example 2-137LP]

>  <Target system>
TRPM8 (Rattus norvegicus, UniProt Q8R455)

>  <Observed>
53

$$$$
>  <Compound>
Cc1nccnc1C(=O)N([C@@H]1CCc2c(F)cc(Cl)cc21)[C@@H](C(N)=O)c1ccccc1 [Example 2-175LP]

>  <Target system>
TRPM8 (Rattus norvegicus, UniProt Q8R455)

>  <Observed>
40

$$$$

====

# Target system: TRPM8 (Rattus norvegicus, UniProt Q8R455)
# Procedure text: Confirmation test of inhibitory effects on icilin-induced wet-dog shakes
# Format: in vivo, female SD rats
# Design: test compounds were orally administered to female SD rats; from tissue; host or cells: whole animal (female SD rats), endogenous channel
# Condition summary: dose 10 mg/kg orally, icilin 1 mg/kg i.p. after 1 hour, shakes counted for 5 minutes
Result type: % inhibition of Wet-Dog Shake

>  <Compound>
NC(=O)[C@@H](c1cccnc1)N(C(=O)c1cccc(F)c1O)[C@@H]1CCc2c(F)cc(Cl)cc21 [Example 19-25LP]

>  <Observed>
86%

$$$$
>  <Compound>
COc1ccc2c(c1)[C@H](N(C(=O)c1ccccc1)[C@@H](C(N)=O)c1ccccc1)CC2 [Example 2-4LP]

>  <Observed>
79%

$$$$
>  <Compound>
Cc1ccc(C(=O)N([C@@H]2CCc3c(F)cc(Cl)cc32)[C@@H](C(N)=O)c2cccnc2)c(O)c1 [Example 19-12LP]

>  <Observed>
82%

$$$$
>  <Compound>
NC(=O)[C@@H](c1cccnc1)N(C(=O)c1ccc(Cl)cc1O)[C@@H]1CCc2c(F)cc(Cl)cc21 [Example 19-17LP]

>  <Observed>
66%

$$$$
>  <Compound>
NC(=O)[C@@H](c1ccccc1)N(C(=O)c1ccccc1)[C@@H]1CCc2ccc(C3CC3)cc21 [Example 2-5LP]

>  <Observed>
89%

$$$$
>  <Compound>
NC(=O)[C@@H](c1ccccc1)N(C(=O)c1ccccc1)[C@@H]1CCc2ccc(OC(F)F)cc21 [Example 2-11LP]

>  <Observed>
85%

$$$$
>  <Compound>
NC(=O)[C@@H](c1cccnc1)N(C(=O)c1ccc(F)cc1O)[C@@H]1CCc2c(F)cc(Cl)cc21 [Example 19-16LP]

>  <Observed>
63%

$$$$
>  <Compound>
NC(=O)[C@@H](c1ccccc1)N(C(=O)c1cccnc1)[C@@H]1CCc2c(F)cc(F)cc21 [Example 1-1]

>  <Observed>
95%

$$$$
>  <Compound>
NC(=O)[C@@H](c1ccccc1)N(C(=O)c1cccnc1N)[C@@H]1CCc2ccc(OC(F)F)cc21 [Example 2-27LP]

>  <Observed>
95%

$$$$
>  <Compound>
NC(=O)[C@@H](c1ccccc1)N(C(=O)c1cccnc1)[C@@H]1CCc2ccc(Cl)cc21 [Example 2-31LP]

>  <Observed>
87%

$$$$
>  <Compound>
NC(=O)[C@@H](c1ccccc1)N(C(=O)c1cncc(F)c1)[C@@H]1CCc2c(F)cc(Cl)cc21 [Example 2-86LP]

>  <Observed>
73%

$$$$
>  <Compound>
NC(=O)[C@@H](c1cccnc1)N(C(=O)c1ccccc1)[C@@H]1CCc2c(F)cc(Cl)cc21 [Example 2-66LP]

>  <Observed>
100%

$$$$
>  <Compound>
Cc1ncccc1C(=O)N([C@@H]1CCc2c(F)cc(Cl)cc21)[C@@H](C(N)=O)c1cccc(N(C)C)c1 [Example 18-13LP]

>  <Observed>
86%

$$$$
>  <Compound>
NC(=O)[C@@H](c1cccnc1)N(C(=O)c1ccccc1)[C@@H]1CCc2c(F)cc(F)cc21 [Example 2-76LP]

>  <Observed>
95%

$$$$
>  <Compound>
CN(C)c1cccc([C@H](C(N)=O)N(C(=O)c2ccccc2O)[C@@H]2CCc3c(F)cc(Cl)cc32)c1 [Example 19-6LP]

>  <Observed>
99%

$$$$
